Reference for the values: the OligoGym collection

Biological target: CEP55
Assay: pooled miR-30 sensor sort-seq; sequence = guide strand
Conditions: shRNA
# label = true if sensor-assay potency score (higher = more potent) >= -0.9 else false

Consider the following illustrative entries.
>>> classification("TTTCTTCATATTTTCTTCGAAA")
"false"
>>> classification("TAACCCATTAGCAATAACCTGA")
"true"
>>> classification("TTGATAAGCATTCTTCTCCTTC")
"true"

Please look at the following sequence next.
Incoming: Kindly determine if sensor-assay potency score (higher = more potent) recorded for "TTTATGCCTATCATCTTCCAGA" is above or exactly -0.9.
Outgoing: true

###

Target: P2RY8
Test: pooled miR-30 sensor sort-seq; sequence = guide strand
Details: shRNA
I'd be grateful if you could share measured sensor-assay potency score (higher = more potent) for these entries.
One number for each entry.

>>> readout_number("TACTGTGAAGATGCTACTCTGA")
-0.29
>>> readout_number("TCAACCAGTGAACAGACTGAGT")
-1.22
>>> readout_number("TTCAGCTTTGGAACAGTCTAGA")
-0.295

Each sequence below has a recorded value; state its sensor-assay potency score (higher = more potent).
1. TGGAACAGTCTAGAGAAGCAGG
2. TTGAGGACGTCGAAGCAGGTGA

Outgoing:
[-1.38, -0.556]

Incoming: What measured sensor-assay potency score (higher = more potent) is associated with "TACACGTGGTAGTAGCTCTTGC" on P2RY8?
Outgoing: -0.559
